The variants listed here are annotated with their protein stability index.
B1: NP_009172.2 (parent)
chain: LPALFTDLYSQEITAEEAREALP

- Variants of: B1
- assay_comment: protein stability index of a GFP-peptide fusion (GPS, HEK-293T) (PSI 1-6); higher = more stable;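 further: lentivirally expressed fusion library, cells FACS-sorted into six equal-sized GFP/DsRed ratio bins, PSI computed from sequencing read fractions per bin weighted by bin number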
- condition: c terminus: native
Give the figure by itself; no unit, no explanation.

[Q] Which protein stability index is reported for this variant? A18N
[A] 2.75

[Q] Which protein stability index is reported for this variant? P23W
[A] 3

[Q] Which protein stability index is reported for this variant? F5E
[A] 5.38

[Q] Which protein stability index is reported for this variant? I13Q
[A] 2.98

[Q] Which protein stability index is reported for this variant? T14R
[A] 2.44

[Q] Which protein stability index is reported for this variant? E17S
[A] 2.33

[Q] Which protein stability index is reported for this variant? E17R
[A] 1.87

[Q] Which protein stability index is reported for this variant? E12S
[A] 3.13

[Q] Which protein stability index is reported for this variant? P23A
[A] 4.14

[Q] Which protein stability index is reported for this variant? L22Y
[A] 3.49

Further cases:
[Q] Which protein stability index is reported for this variant? T6R
[A] 3.15

[Q] Which protein stability index is reported for this variant? E12V
[A] 3.38

[Q] Which protein stability index is reported for this variant? D7T
[A] 2.57
